Cited source for all entries: patent US20110039763A1

System: microorganisms
Test Protocol: Morphology, biofilm and growth disrupting peptides (Table 5)
Assay type: cell-based
Set-up: key: A: Peptide aggregates; B: Less hyphal formation; Clumps; Diffuse clumps and small polyps; F: Diffuse growth; H: Thin; I: Growth inhibition; Microcolony formation; Rippled; Small polyps; Thick; W: Halo formation on top, microlonies on bottom
Reported Conditions: S. pneumoniae

Substance	Organism, effect
PF-467: peptide having multiple activities (YYKDYFKEI; Peptide with targeting and/or antimicrobial activity)	S. pneumoniae (H)
PF-476: peptide having multiple activities (WADAQYKLCENCSE; Peptide with targeting and/or antimicrobial activity)	S. pneumoniae (H)

====

Tested on: microorganisms
Test Protocol: Targeting peptide binding to target microorganisms (Tables 3, 10, 12)
Reported Conditions: microorganism(s) the targeting peptide binds; binding in aqueous buffers varied with peptide solubility, preferably 1x PBS
Metric: Target(s)

Solved cases below.
Substance	Metric	Result
PF-795 (ALHKSGIQVIADWVPDQIYN; Peptide with targeting and/or antimicrobial activity)	Target(s)	S. mutans
PF-682 (RRGKSEQGLSRR; Peptide with targeting and/or antimicrobial activity)	Target(s)	Mycobacteria spp
PF-787 (MTERQRRALLKQHPEVVSWSDYLEKRKRRTGTAG; Peptide with targeting and/or antimicrobial activity)	Target(s)	Mycobacteria spp.
PF-688 (ARNHAVIPAG; Peptide with targeting and/or antimicrobial activity)	Target(s)	Mycobacteria spp
PF-701 (PRGAQSGHG; Peptide with targeting and/or antimicrobial activity)	Target(s)	S. mutans
PF-275 (LVSGVANTVKNTAHTVGNTAKHAGHVAADTTVKATKKQQVK; Peptide with targeting and/or antimicrobial activity)	Target(s)	S. mutans
PF-694 (DLIRPLYSMSAPSVA; Peptide with targeting and/or antimicrobial activity)	Target(s)	Mycobacteria spp
PF-798 (ALHSKGIKVMADWVPDQMYA; Peptide with targeting and/or antimicrobial activity)	Target(s)	S. mutans

Could you now consider this next substance?
For the substance shown here, PF-788 (GLITVFAGTARILQLRRAAKKTHAAALR; Peptide with targeting and/or antimicrobial activity) , give the reported Target(s).
Mycobacteria spp.

====

Tested on: microorganisms
Test Protocol: Morphology, biofilm and growth disrupting peptides (Table 5)
Format: cell-based
Parameters: key: A: Peptide aggregates; B: Less hyphal formation; Clumps; Diffuse clumps and small polyps; F: Diffuse growth; H: Thin; I: Growth inhibition; Microcolony formation; Rippled; Small polyps; Thick; W: Halo formation on top, microlonies on bottom
Reported Conditions: M. luteus
Description: In certain embodiments peptides that induce alterations in phenotype or other biological activities can also be used as antimicrobial effector moieties.

Substance	Organism, effect
PF-556: peptide having multiple activities (SLQIRMNTLTAAKASIEAA; Peptide with targeting and/or antimicrobial activity)	M. luteus (A)
PF-634: peptide having multiple activities (chain 1 MPKARPVNHNKKKSKITIKSNFTLFYMFNP; chain 2 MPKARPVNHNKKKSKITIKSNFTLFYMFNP; Peptide with targeting and/or antimicrobial activity)	M. luteus (C)
EILNNNQVIKELTMKYKTQFESNLGGWTARARR [PF-580]	M. luteus (C)
PF-548: peptide having multiple activities (ARPIADLIHFNSTTVTASGDVYYGPG; Peptide with targeting and/or antimicrobial activity)	M. luteus (A)

====

Tested on: microorganisms
Test Protocol: Morphology, biofilm and growth disrupting peptides (Table 5)
Format: cell-based
Set-up: key: A: Peptide aggregates; B: Less hyphal formation; Clumps; Diffuse clumps and small polyps; F: Diffuse growth; H: Thin; I: Growth inhibition; Microcolony formation; Rippled; Small polyps; Thick; W: Halo formation on top, microlonies on bottom
Reported Conditions: S. epidermidis
Metric: Organism, effect

Substance	Measured On	Result
PF-770: peptide having multiple activities (GVGIGFIMMGVVGYAVKLVHIPIRYLIV; Peptide with targeting and/or antimicrobial activity)	microorganisms	S. epidermidis (D)
PF-634: peptide having multiple activities (chain 1 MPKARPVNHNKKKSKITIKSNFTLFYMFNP; chain 2 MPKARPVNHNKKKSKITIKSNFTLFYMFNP; Peptide with targeting and/or antimicrobial activity)	microorganisms	S. epidermidis (D)

====

Tested on: microorganisms
Test Protocol: Morphology, biofilm and growth disrupting peptides (Table 5)
Assay type: cell-based
Set-up: key: A: Peptide aggregates; B: Less hyphal formation; Clumps; Diffuse clumps and small polyps; F: Diffuse growth; H: Thin; I: Growth inhibition; Microcolony formation; Rippled; Small polyps; Thick; W: Halo formation on top, microlonies on bottom
Reported Conditions: S. pneumoniae
Metric: Organism, effect

Substance	Organism, effect
PF-626: peptide having multiple activities (chain 1 KYDFDDFEPEEA; chain 2 KYDFDDFEPEEA; Peptide with targeting and/or antimicrobial activity)	S. pneumoniae (H)
PF-658 (chain 1 PTTPPPTTPPEIPTGGTVIST; chain 2 PTTPPPTTPPEIPTGGTVIST; Peptide with targeting and/or antimicrobial activity)	S. pneumoniae (H)
PF-644 (chain 1 TSGLIIGENGLNGL; chain 2 TSGLIIGENGLNGL; Peptide with targeting and/or antimicrobial activity)	S. pneumoniae (H)
PF-478: peptide having multiple activities (HLFILKSHLKPFPPFRYTYD; Peptide with targeting and/or antimicrobial activity)	S. pneumoniae (C)

Could you now consider this next substance?
For the substance shown here, PF-451: peptide having multiple activities (MVNYIIGSYMLYREQNNNEALRKFDITLAM; Peptide with targeting and/or antimicrobial activity) , give the reported Organism, effect.
S. pneumoniae (C)

====

Test system: microorganisms
Test Protocol: Morphology, biofilm and growth disrupting peptides (Table 5)
Format: cell-based
Parameters: key: A: Peptide aggregates; B: Less hyphal formation; Clumps; Diffuse clumps and small polyps; F: Diffuse growth; H: Thin; I: Growth inhibition; Microcolony formation; Rippled; Small polyps; Thick; W: Halo formation on top, microlonies on bottom
Reported Conditions: E. coli
From the text: In certain embodiments peptides that induce alterations in phenotype or other biological activities can also be used as antimicrobial effector moieties.
Metric: Organism, effect: E. coli

Substance	Metric	Result
PF-355: peptide having multiple activities (chain 1 WIAIGLLLYFSLKNQ; chain 2 WIAIGLLLYFSLKNQ; Peptide with targeting and/or antimicrobial activity)	Organism, effect: E. coli	E. coli (C)
PF-374: peptide having multiple activities (chain 1 HLFFVKGMFILCQKNQINDE; chain 2 HLFFVKGMFILCQKNQINDE; Peptide with targeting and/or antimicrobial activity)	Organism, effect: E. coli	E. coli (C)
PF-376: peptide having multiple activities (chain 1 MTVFEALMLAIAFATLIVKISNKNDKK; chain 2 MTVFEALMLAIAFATLIVKISNKNDKK; Peptide with targeting and/or antimicrobial activity)	Organism, effect: E. coli	E. coli (C)

====

System: microorganisms
Test Protocol: Peptide activities: targeting/binding, antimicrobial, growth or phenotype altering (Tables 7, 8)
Format: cell-based
Reported Conditions: peptides having multiple activities
Metric: Activities

Substance	Result
PF-588: peptide having multiple activities (chain 1 ESVEAIKAKAIK; chain 2 ESVEAIKAKAIK; Peptide with targeting and/or antimicrobial activity)	G B
VWENRKKYLENEIERHNVFLKLGQEVIKGLNALASRGR [PF-257]	G B
PF-760: peptide having multiple activities (DHITLDDYEIHDGFNFELYYG; Peptide with targeting and/or antimicrobial activity)	G B

====

System: microorganisms
Test Protocol: Morphology, biofilm and growth disrupting peptides (Table 5)
Format: cell-based
Parameters: key: A: Peptide aggregates; B: Less hyphal formation; Clumps; Diffuse clumps and small polyps; F: Diffuse growth; H: Thin; I: Growth inhibition; Microcolony formation; Rippled; Small polyps; Thick; W: Halo formation on top, microlonies on bottom
Reported Conditions: S. epidermidis
Metric: Organism, effect

Substance	Measured On	Organism, effect
PF-426: peptide having multiple activities (chain 1 MLQKYTQMISVTKCIITKNKKTQENVDAYN; chain 2 MLQKYTQMISVTKCIITKNKKTQENVDAYN; Peptide with targeting and/or antimicrobial activity)	microorganisms	S. epidermidis (D)
PF-544: peptide having multiple activities (FGEKQMRSWWKVHWFHP; Peptide with targeting and/or antimicrobial activity)	microorganisms	S. epidermidis (D)
PF-439: peptide having multiple activities (chain 1 RVLVLKKFHGIMDGNRNVAVFFVGQ; chain 2 RVLVLKKFHGIMDGNRNVAVFFVGQ; Peptide with targeting and/or antimicrobial activity)	microorganisms	S. epidermidis (C)
PF-514: peptide having multiple activities (QRFYKLFYHIDLTNEQALKLFQVK; Peptide with targeting and/or antimicrobial activity)	microorganisms	S. epidermidis (C)

Could you now consider this next substance?
For the substance shown here, PF-657 (chain 1 YVANYTITQFGRDFDDRLAVAIHFA; chain 2 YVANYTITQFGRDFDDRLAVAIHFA; Peptide with targeting and/or antimicrobial activity) , give the reported Organism, effect.
S. epidermidis (C)

====

System: microorganisms
Test Protocol: Morphology, biofilm and growth disrupting peptides (Table 5)
Format: cell-based
Parameters: key: A: Peptide aggregates; B: Less hyphal formation; Clumps; Diffuse clumps and small polyps; F: Diffuse growth; H: Thin; I: Growth inhibition; Microcolony formation; Rippled; Small polyps; Thick; W: Halo formation on top, microlonies on bottom
Reported Conditions: S. epidermidis
Excerpt: In certain embodiments peptides that induce alterations in phenotype or other biological activities can also be used as antimicrobial effector moieties.
Ends that are not written are not given here.
Metric: Organism, effect

Solved cases below.
Substance	Organism, effect
PF-595: peptide having multiple activities (chain 1 LQNKIYELLYIKERSKLCS; chain 2 LQNKIYELLYIKERSKLCS; Peptide with targeting and/or antimicrobial activity)	S. epidermidis (C)
PF-616: peptide having multiple activities (chain 1 IVFVVTKEKK; chain 2 IVFVVTKEKK; Peptide with targeting and/or antimicrobial activity)	S. epidermidis (R)
PF-540: peptide having multiple activities (KSILILIKVIFIGQTTIIL; Peptide with targeting and/or antimicrobial activity)	S. epidermidis (H)
PF-627: peptide having multiple activities (chain 1 INDLLSYFTLHEK; chain 2 INDLLSYFTLHEK; Peptide with targeting and/or antimicrobial activity)	S. epidermidis (H)

Consider the following items and state reported Organism, effect for each.
1. PF-746: peptide having multiple activities (FLGNSQYFTRK; Peptide with targeting and/or antimicrobial activity)
2. PF-444: peptide having multiple activities (MAAKLWEEGKMVYASSASMTKRLKLAMSKV; Peptide with targeting and/or antimicrobial activity)
3. PF-605: peptide having multiple activities (chain 1 HYRWNTQWWKY; chain 2 HYRWNTQWWKY; Peptide with targeting and/or antimicrobial activity)
4. PF-447: peptide having multiple activities (IDKSRNKDQFSHIFGLYNICSG; Peptide with targeting and/or antimicrobial activity)
5. WSRVPGHSDTGWKVWHRW-NH2 [PF-547]

1. S. epidermidis (C)
2. S. epidermidis (C)
3. S. epidermidis (R)
4. S. epidermidis (C)
5. S. epidermidis (R)
